- protocol: The drug is tested on Bacteroides fragilis strain: ATCC43859 for biotransformation. The drug concentrations were measured before and after a 12-h incubation by liquid-chromatography-coupled mass spectrometry (LC–MS)
- run-conditions: 2 µM
measured-parameter: Bacterial Biotransformation

Record excerpt, results attached:
Cc1cc(C)cc(OCC2CNC(=O)O2)c1 (stereo not given)	Compound metabolized
CCN(CC)CCCC(C)Nc1c2ccc(Cl)cc2nc2ccc(OC)cc12 (stereo not given)	Compound NOT metabolized
CCN(CC)CCNC(=O)c1ccc(NC(C)=O)cc1 [ACECAINIDE]	Compound metabolized
COC(=O)[C@H]1[C@H]2C[C@@H]3c4[nH]c5cc(OC)ccc5c4CCN3C[C@H]2C[C@@H](OC(=O)c2cc(OC)c(OC)c(OC)c2)[C@@H]1OC	Compound NOT metabolized

input: I would be grateful if you could share the reported Bacterial Biotransformation for `O=C1[C@H](CC[C@H](O)c2ccc(F)cc2)[C@@H](c2ccc(O)cc2)N1c1ccc(F)cc1` .
output: Compound NOT metabolized

input: Same for CCCC(C)(COC(N)=O)COC(=O)NC(C)C (stereo not given)
output: Compound metabolized

====

- tested-target: Endoglucanase E (EGE) (Bacteroides thetaiotaomicron, UniProt Q8AAL9)
- Sequence (Q8AAL9 whole entry): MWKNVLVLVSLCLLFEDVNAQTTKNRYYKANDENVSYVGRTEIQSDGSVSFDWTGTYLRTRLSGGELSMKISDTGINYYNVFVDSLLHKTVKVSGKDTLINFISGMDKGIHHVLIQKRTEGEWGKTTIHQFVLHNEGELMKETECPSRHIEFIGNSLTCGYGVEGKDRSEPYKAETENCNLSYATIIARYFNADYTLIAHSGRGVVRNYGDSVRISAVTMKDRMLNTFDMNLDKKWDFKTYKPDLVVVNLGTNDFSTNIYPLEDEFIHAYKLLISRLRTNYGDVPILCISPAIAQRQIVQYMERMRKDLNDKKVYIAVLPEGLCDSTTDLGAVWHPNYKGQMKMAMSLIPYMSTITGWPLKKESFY
- protocol: The drug is tested on Bacteroides thetaiotaomicron strain: VPI-5482 for biotransformation. The drug concentrations were measured before and after a 12-h incubation by liquid-chromatography-coupled mass spectrometry (LC–MS)
- Assay type: ADME
- Set-up: dose 2 uM
- run-conditions: 2 µM
measured-parameter: Bacterial Biotransformation

C#C[C@]1(O)CC[C@H]2[C@@H]3CCC4=CC(=O)CC[C@@H]4[C@H]3CC[C@@]21CC [LEVONORGESTREL]	Compound NOT metabolized
Nc1ccc(/N=N/c2ccccc2)c(N)n1 [PHENAZOPYRIDINE]	Compound NOT metabolized
CCS(=O)(=O)CCn1c([N+](=O)[O-])cnc1C [TINIDAZOLE]	Compound NOT metabolized
CC(=O)OCC(=O)[C@@]12N=C(C)O[C@@H]1C[C@H]1[C@@H]3CCC4=CC(=O)C=C[C@]4(C)[C@H]3[C@@H](O)C[C@@]12C [DEFLAZACORT]	Compound NOT metabolized

====

- protocol: The drug is tested on Bacteroides xylanisolvens strain: DSM18836 for biotransformation. The drug concentrations were measured before and after a 12-h incubation by liquid-chromatography-coupled mass spectrometry (LC–MS)
- run-conditions: 2 µM
measured-parameter: Bacterial Biotransformation

COc1cc2nc(N3CCN(C(=O)c4ccco4)CC3)nc(N)c2cc1OC	Compound NOT metabolized
Fc1ccc([C@@H]2CCNC[C@H]2COc2ccc3c(c2)OCO3)cc1	Compound NOT metabolized
C=C[C@H]1CN2CC[C@H]1C[C@H]2[C@H](O)c1ccnc2ccc(OC)cc12.C=C[C@H]1CN2CC[C@H]1C[C@H]2[C@H](O)c1ccnc2ccc(OC)cc12.O.O.O=S(=O)(O)O [QUININE SULFATE]	Compound NOT metabolized

====

- protocol: The drug is tested on Bacteroides fragilis strain: HMW610 for biotransformation. The drug concentrations were measured before and after a 12-h incubation by liquid-chromatography-coupled mass spectrometry (LC–MS)
- run-conditions: 2 µM
measured-parameter: Bacterial Biotransformation

Record excerpt, results attached:
CN(C)C(=O)C(CCN1CCC(O)(c2ccc(Cl)cc2)CC1)(c1ccccc1)c1ccccc1 [LOPERAMIDE]	Compound metabolized
CCc1oc2ccccc2c1C(=O)c1cc(Br)c(O)c(Br)c1	Compound NOT metabolized
O=C(O)CCC(=O)O.O=C(O[C@H]1CN2CCC1CC2)N1CCc2ccccc2[C@@H]1c1ccccc1 [SOLIFENACIN SUCCINATE]	Compound NOT metabolized
COc1ccccc1OCCNCC(O)COc1cccc2[nH]c3ccccc3c12 (configuration not stated)	Compound NOT metabolized
CC(C)NCC(O)COc1ccc(COCCOC(C)C)cc1.CC(C)NCC(O)COc1ccc(COCCOC(C)C)cc1.O=C(O)/C=C/C(=O)O (configuration not stated) [BISOPROLOL FUMARATE]	Compound NOT metabolized
CC(=O)Nc1ccc(OC(C)=O)cc1 [DIACETAMATE]	Compound metabolized
C#C[C@]1(O)CC[C@H]2[C@@H]3CCC4=CC(=O)CC[C@@H]4[C@H]3CC[C@@]21CC	Compound metabolized
Cc1ccccc1C(OCCN(C)C)c1ccccc1.O=C(O)CC(O)(CC(=O)O)C(=O)O (configuration not stated) [ORPHENADRINE CITRATE]	Compound NOT metabolized

input: I would be grateful if you could share the reported Bacterial Biotransformation for CN1CCN(C2=Nc3ccccc3Oc3ccc(Cl)cc32)CC1.O=C(O)CCC(=O)O [LOXAPINE SUCCINATE] .
output: Compound NOT metabolized

input: Same for CCOc1ccc2nc(S(N)(=O)=O)sc2c1 [ETHOXZOLAMIDE]
output: Compound NOT metabolized

====

- run-conditions: bacteroides eggerthii, 12 h, 2 µM
- Description: The drug is tested on Bacteroides eggerthii strain: DSM20697 for biotransformation. The drug concentrations were measured before and after a 12-h incubation by liquid-chromatography-coupled mass spectrometry (LC–MS)
measured-parameter: Bacterial Biotransformation

OCCN1CCN(CCCN2c3ccccc3Sc3ccc(C(F)(F)F)cc32)CC1	Compound NOT metabolized
CC(=O)OCC(=O)NCCCOc1cccc(CN2CCCCC2)c1 [ROXATIDINE ACETATE]	Compound metabolized
CC(C)(Oc1ccc(CCNC(=O)c2ccc(Cl)cc2)cc1)C(=O)O [BEZAFIBRATE]	Compound metabolized
CCc1oc2ccccc2c1C(=O)c1cc(Br)c(O)c(Br)c1	Compound NOT metabolized
CNS(=O)(=O)Cc1ccc2[nH]cc(CCN(C)C)c2c1.O=C(O)CCC(=O)O [SUMATRIPTAN SUCCINATE]	Compound NOT metabolized
CC1Cc2ccccc2N1NC(=O)c1ccc(Cl)c(S(N)(=O)=O)c1 (configuration not stated) [INDAPAMIDE]	Compound NOT metabolized
COc1ccccc1OCC(O)CN1CCN(CC(=O)Nc2c(C)cccc2C)CC1 (configuration not stated)	Compound NOT metabolized
CN1CCC(=C2c3ccccc3CCc3cccnc32)CC1.O=C(O)/C=C\C(=O)O.O=C(O)/C=C\C(=O)O [AZATADINE MALEATE]	Compound NOT metabolized
NC12CC3CC(CC(C3)C1)C2	Compound NOT metabolized
CCc1cccc2c3c([nH]c12)C(CC)(CC(=O)O)OCC3 (configuration not stated)	Compound NOT metabolized

input: I would be grateful if you could share the reported Bacterial Biotransformation for `CN(C(=O)CN(CCO)CC(=O)N(C)C(C)(C)Cc1ccccc1)C(C)(C)Cc1ccccc1` .
output: Compound NOT metabolized

input: Same for `CCOC(=O)[C@H](CCc1ccccc1)N[C@@H](C)C(=O)N1[C@H](C(=O)O)C[C@H]2CCCC[C@@H]21`
output: Compound metabolized

input: Same for `Cc1ccc(NC(=O)c2ccc(CN3CCN(C)CC3)cc2)cc1Nc1nccc(-c2cccnc2)n1`
output: Compound NOT metabolized

input: Same for O=P1(N(CCCl)CCCl)NCCCO1 (configuration not stated) [CYCLOPHOSPHAMIDE ANHYDROUS]
output: Compound NOT metabolized

input: Same for CC(C)(C)NCC(O)COc1cccc2c1CC(O)C(O)C2 (configuration not stated)
output: Compound NOT metabolized

input: Same for `Cc1cc2c(cc1S(N)(=O)=O)S(=O)(=O)CCC2`
output: Compound NOT metabolized

input: Same for CC(C)N(CCC(C(N)=O)(c1ccccc1)c1ccccn1)C(C)C.O=P(O)(O)O (configuration not stated) [DISOPYRAMIDE PHOSPHATE]
output: Compound NOT metabolized

input: Same for `COc1cc2nc(N3CCN(C(=O)c4ccco4)CC3)nc(N)c2cc1OC`
output: Compound NOT metabolized

====

- protocol: The drug is tested on Subdoligranulum variabile strain: DSM15176 for biotransformation. The drug concentrations were measured before and after a 12-h incubation by liquid-chromatography-coupled mass spectrometry (LC–MS)
- run-conditions: 2 µM
measured-parameter: Bacterial Biotransformation

CCN(CC)CCNC(=O)c1cc(S(C)(=O)=O)ccc1OC [TIAPRIDE]	Compound NOT metabolized
CN1CCN(C2=Nc3cc(Cl)ccc3Nc3ccccc32)CC1	Compound NOT metabolized
COC1=C(OC)C(=O)C(CCCCCCCCCCO)=C(C)C1=O	Compound metabolized
CC#C[C@]1(O)CC[C@H]2[C@@H]3CCC4=CC(=O)CCC4=C3[C@@H](c3ccc(N(C)C)cc3)C[C@@]21C	Compound NOT metabolized
COc1c(C)c2c(c(O)c1C/C=C(\C)CCC(=O)OCCN1CCOCC1)C(=O)OC2 [MYCOPHENOLATE MOFETIL]	Compound metabolized
C#C[C@]1(OC(C)=O)CC[C@H]2[C@@H]3CCC4=C[C@@H](OC(C)=O)CC[C@@H]4[C@H]3CC[C@@]21C [ETHYNODIOL DIACETATE]	Compound NOT metabolized
OC(CCN1CCCCC1)(c1ccccc1)C1CCCCC1 (stereo not given)	Compound NOT metabolized
COc1cc2nc(N3CCN(C(=O)C4CCCO4)CC3)nc(N)c2cc1OC (stereo not given)	Compound NOT metabolized
CO[C@]12C[C@@H](COC(=O)c3cncc(Br)c3)CN(C)[C@@H]1Cc1cn(C)c3cccc2c13	Compound NOT metabolized
CN(C)CCc1c[nH]c2ccc(CS(=O)(=O)N3CCCC3)cc12	Compound NOT metabolized

input: I would be grateful if you could share the reported Bacterial Biotransformation for `CN1CCc2cccc3c2[C@H]1Cc1ccc(O)c(O)c1-3` .
output: Compound NOT metabolized

input: Same for CN(C)CCOC(C)(c1ccccc1)c1ccccn1.O=C(O)CCC(=O)O (stereo not given) [DOXYLAMINE SUCCINATE]
output: Compound NOT metabolized

input: Same for `C[C@@H](c1ncncc1F)[C@](O)(Cn1cncn1)c1ccc(F)cc1F`
output: Compound NOT metabolized

input: Same for `CCS(=O)(=O)CCn1c([N+](=O)[O-])cnc1C`
output: Compound metabolized

input: Same for COc1ccc(C(CN(C)C)C2(O)CCCCC2)cc1 (stereo not given)
output: Compound NOT metabolized

input: Same for `N#Cc1ccc(C(c2ccc(C#N)cc2)n2cncn2)cc1`
output: Compound NOT metabolized
